Biological target: TYK2 (Homo sapiens (Human))
Sequence (P29597 897-1176): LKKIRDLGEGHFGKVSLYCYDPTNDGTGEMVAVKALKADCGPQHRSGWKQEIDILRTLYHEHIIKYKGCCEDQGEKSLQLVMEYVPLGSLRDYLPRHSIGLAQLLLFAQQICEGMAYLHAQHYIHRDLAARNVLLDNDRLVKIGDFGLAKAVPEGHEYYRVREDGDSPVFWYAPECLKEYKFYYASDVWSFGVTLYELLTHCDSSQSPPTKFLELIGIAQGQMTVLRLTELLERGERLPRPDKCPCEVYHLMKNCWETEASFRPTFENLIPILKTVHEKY
Test: JAK Caliper Enzyme Assay at 1 mM ATP, TYK2
Type: biochemical
metric name: IC50 (nM)

Guide cases for IC50, answers given:
{"molecule": "CO[C@H]1C[C@](CC#N)(n2ccc(-c3nc(-c4c[nH]nc4N)cc4ncccc34)n2)C1 [Example 96]", "IC50 (nM)": 31}
{"molecule": "CO[C@H]1C[C@](CC#N)(n2cc(-c3nc(-c4cc(CO)n[nH]4)cc4ncccc34)cn2)C1", "IC50 (nM)": 42}
{"molecule": "N#CC[C@]1(n2ncc(-c3cc(-c4cn[nH]c4)cc4ncccc34)n2)C[C@@H](C#N)C1", "IC50 (nM)": 8}
{"molecule": "N#CC[C@]1(n2ccc(-c3nc(-c4ccnc(CO)c4)cc4ncccc34)n2)C[C@@H](C#N)C1", "IC50 (nM)": 19}
{"molecule": "Cc1ncc(-c2cc3ncccc3c(-c3ccn(C4(CC#N)CN(S(C)(=O)=O)C4)n3)n2)cc1N", "IC50 (nM)": 189}

(1) Cn1ncc(-c2cc3ncccc3c(-c3ccn(C4(CC#N)CN(CC(F)(F)F)C4)n3)n2)n1
(2) N#CC[C@]1(n2ccc(-c3nc(-c4c[nH]nc4N)cc4ncccc34)n2)C[C@@H](C#N)C1
Exercise: Of 1 and 2 , whose reported IC50 is the larger number? Which one? Tell me its label.
Key: 1
(1: 287 nM, 2: 5 nM)

---

Biological target: UniProtKB O60674
Assay: JAK Caliper Enzyme Assay at 1 mM ATP, JAK2
Format: biochemical
metric name: IC50 (nM)

Guide cases for IC50, answers given:
{"molecule": "N#CCC1(n2ccc(-c3nc(-c4ccc(O)nc4)cc4ncccc34)n2)CN(C2CC(F)(F)C2)C1", "unit of measurement": "nM", "IC50": 2070}
{"molecule": "N#CC[C@]1(n2ccc(-c3nc(-c4ccc(N)cn4)cc4ncccc34)n2)C[C@@H](C#N)C1", "unit of measurement": "nM", "IC50": 596}
{"molecule": "Cn1ncc(-c2cc(-c3cnn([C@]4(CC#N)C[C@H](C#N)C4)n3)c3cccnc3c2)c1N", "unit of measurement": "nM", "IC50": 740}
{"molecule": "CO[C@H]1C[C@](CC#N)(n2ccc(-c3nc(-c4ccn[nH]4)cc4ncccc34)n2)C1", "unit of measurement": "nM", "IC50": 1770}
{"molecule": "N#CC[C@]1(n2ccc(-c3nc(-c4cnn(CCO)c4)cc4ncccc34)n2)C[C@@H](C#N)C1", "unit of measurement": "nM", "IC50": 20}
{"molecule": "N#CCC1(n2ncc(-c3cc(-c4ccccn4)cc4ncccc34)n2)CC(C#N)C1 (stereo not shown)", "unit of measurement": "nM", "IC50": 123}

(a) N#CCC1(n2ncc(-c3cc(-c4cc(N)[nH]n4)cc4ncccc34)n2)CC(C#N)C1 (stereo not shown)
(b) CS(=O)(=O)N1CC(CC#N)(n2ccc(-c3nc(-c4c[nH]c5cccnc45)cc4ncccc34)n2)C1
(c) N#CCC1(n2ccc(-c3nc(-c4cc[nH]n4)cc4ncccc34)n2)CC2(COC2)C1
(d) Cn1cc(-c2cc3ncccc3c(-c3ccn(C4(CC#N)CN(S(C)(=O)=O)C4)n3)n2)c(N)n1
Exercise: Would you mind ranking these molecules by ascending IC50? List the labels in the requested order.
Key: d, a, c, b

(A) CO[C@H]1C[C@@](CC#N)(n2cc(-c3nc(-c4cnn(CCO)c4)cc4ncccc34)cn2)C1
(B) N#CCC1(n2ccc(-c3nc(-c4nc(CO)cs4)cc4ncccc34)n2)CC(C#N)C1 (stereo not shown)
Exercise: Of A and B , whose reported IC50 is the larger number? Which one? Tell me its label.
Key: B

(A) CS(=O)(=O)N1CC(CC#N)(n2ccc(-c3nc(-c4cnn(CCO)c4)cc4ncccc34)n2)C1
(B) CN(C)c1ccc(-c2cc3ncccc3c(-c3ccn(C4(CC#N)CN(S(C)(=O)=O)C4)n3)n2)cn1
Exercise: Of A and B , whose reported IC50 is the larger number? Which one? Tell me its label.
Key: A
(A: 162 nM, B: 86 nM)

---

Overview of reported IC50 across a group of compounds:
Target: JAK3 (Homo sapiens (Human), UniProt P52333)
Sequence (P52333 822-1111): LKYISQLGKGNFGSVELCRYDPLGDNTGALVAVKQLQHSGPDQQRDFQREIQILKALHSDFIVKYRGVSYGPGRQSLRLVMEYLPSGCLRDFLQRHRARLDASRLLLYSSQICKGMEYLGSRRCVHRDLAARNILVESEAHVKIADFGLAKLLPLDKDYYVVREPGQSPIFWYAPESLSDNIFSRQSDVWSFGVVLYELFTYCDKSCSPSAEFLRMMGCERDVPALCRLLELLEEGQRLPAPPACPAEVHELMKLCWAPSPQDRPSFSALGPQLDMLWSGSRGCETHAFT
Experiment: JAK Caliper Enzyme Assay at 1 mM ATP, JAK3
Assay type: biochemical

{"compound": "CO[C@H]1C[C@@](CC#N)(n2ccc(-c3nc(-c4cnn(CCO)c4)cc4ncccc34)n2)C1 [Example 128]", "IC50": "> 10 µM"}
{"compound": "N#CC[C@]1(n2ccc(-c3nc(-c4ccnc(C(N)=O)n4)cc4ncccc34)n2)C[C@H](C#N)C1 [Example 244]", "IC50": "> 10 µM"}
{"compound": "N#CCC1(n2ccc(-c3nc(-c4ccc(O)c(C(N)=O)n4)cc4ncccc34)n2)CC(C#N)C1 (stereo not shown) [Example 226]", "IC50": "> 10 µM"}
{"compound": "CS(=O)(=O)N1CC(CC#N)(n2cc(-c3cc(-c4cc[nH]n4)cc4ncccc34)cn2)C1 [Example 288]", "IC50": "> 10 µM"}
{"compound": "Cc1nc(-c2cc(-c3cnn([C@]4(CC#N)C[C@@H](C#N)C4)n3)c3cccnc3c2)c[nH]1 [Example 337]", "IC50": "> 10 µM"}

Exercise: Given the entry Cc1cc(-c2cc3ncccc3c(-c3ccn(C4(CC#N)CN(CC(F)(F)F)C4)n3)n2)c[nH]c1=O [Example 250] , report its measured IC50.
Key: > 10 µM

Exercise: Do the same for CCn1cc(-c2cc3ncccc3c(-c3ccn([C@]4(CC#N)C[C@@H](C#N)C4)n3)n2)cn1 [Example 113] please
Key: 8.97 µM

---

Target: JAK1 (Homo sapiens (Human), UniProt P23458)
Sequence (P23458 875-1153): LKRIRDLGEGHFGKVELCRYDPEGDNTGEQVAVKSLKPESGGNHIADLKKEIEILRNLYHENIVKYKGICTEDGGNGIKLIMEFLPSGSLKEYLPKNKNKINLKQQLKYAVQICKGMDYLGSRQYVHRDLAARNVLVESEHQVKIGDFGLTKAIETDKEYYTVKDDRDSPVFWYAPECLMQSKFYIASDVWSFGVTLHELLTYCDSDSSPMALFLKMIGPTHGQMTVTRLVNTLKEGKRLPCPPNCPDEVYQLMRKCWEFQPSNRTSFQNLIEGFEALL
Experiment: JAK Caliper Enzyme Assay at 1 mM ATP, JAK1
Assay type: biochemical
pIC50: −log10 of the molar value.
metric name: pIC50

Guide cases for pIC50, answers given:
{"compound": "N#CC[C@]1(n2ccc(-c3nc(-c4ccc(N)nc4)cc4ncccc34)n2)C[C@H](C#N)C1", "pIC50": 6.31}
{"compound": "CO[C@H]1C[C@](CC#N)(n2cc(-c3nc(-c4cnn(CCO)c4)cc4ncccc34)cn2)C1", "pIC50": 6.28}
{"compound": "CS(=O)(=O)c1ccc(-c2cc3ncccc3c(-c3ccn([C@]4(CC#N)C[C@@H](C#N)C4)n3)n2)cn1", "pIC50": 5.59}
{"compound": "Cn1cc(-c2cc3ncccc3c(-c3ccn(C4(CC#N)CN(S(=O)(=O)C5CC5)C4)n3)n2)cn1", "pIC50": 6.00}
{"compound": "CS(=O)(=O)N1CC(CC#N)(n2ccc(-c3nc(-c4ccc5nccn5c4)cc4ncccc34)n2)C1", "pIC50": 6.10}

(1) CS(=O)(=O)N1CC(CC#N)(n2ccc(-c3nc(-c4cnn(C5COC5)c4)cc4ncccc34)n2)C1
(2) N#CC[C@]1(n2ccc(-c3nc(-c4cc(CO)no4)cc4ncccc34)n2)C[C@@H](C#N)C1
(3) CO[C@H]1C[C@@](CC#N)(n2cc(-c3nc(-c4cnn(CCO)c4)cc4ncccc34)cn2)C1
(4) CC(=O)N(C)C1CC(CC#N)(n2ccc(-c3nc(-c4cc[nH]n4)cc4ncccc34)n2)C1 (stereo not shown)
Exercise: Would you mind ranking these compounds by ascending pIC50? List the labels in the requested order.
Key: 4, 1, 3, 2

---

Target: JAK2 (Homo sapiens (Human), UniProt O60674)
Sequence (O60674 849-1124): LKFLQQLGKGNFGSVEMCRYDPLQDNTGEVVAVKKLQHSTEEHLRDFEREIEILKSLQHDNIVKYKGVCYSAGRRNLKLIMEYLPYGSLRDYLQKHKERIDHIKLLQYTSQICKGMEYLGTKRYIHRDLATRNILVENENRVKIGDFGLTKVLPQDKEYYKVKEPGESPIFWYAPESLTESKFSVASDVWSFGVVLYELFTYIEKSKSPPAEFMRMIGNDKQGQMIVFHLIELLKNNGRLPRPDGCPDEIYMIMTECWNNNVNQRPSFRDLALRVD
Assay: JAK Caliper Enzyme Assay at 1 mM ATP, JAK2
Assay type: biochemical
Conditions: JAK Caliper enzyme assay
metric name: IC50 (nM)

(I) N#CC[C@]1(n2ncc(-c3cc(-c4ccc(N)nn4)cc4ncccc34)n2)C[C@H](C#N)C1
(II) CN1C(=O)COc2ccc(-c3cc(-c4cnn([C@]5(CC#N)C[C@@H](C#N)C5)n4)c4cccnc4c3)nc21
Exercise: Of I and II , whose reported IC50 is the larger number? Which one? Tell me its label.
Key: I

(A) Cn1cc(-c2cc(-c3cnn([C@]4(CC#N)C[C@H](C#N)C4)c3)n3ccnc3c2)cn1
(B) Cc1cc(-c2cc(-c3cnn([C@]4(CC#N)C[C@@H](C#N)C4)c3)n3ccnc3c2)[nH]n1
Exercise: Of A and B , whose reported IC50 is the larger number? Which one? Tell me its label.
Key: B
(B: 389 nM, A: 204 nM)

---

Target: TYK2 (Homo sapiens (Human))
Experiment: JAK Caliper Enzyme Assay at 1 mM ATP, TYK2
Format: biochemical
metric name: IC50 (nM)

Guide cases for IC50, answers given:
{"structure as smiles": "N#CC[C@]1(n2ccc(-c3nc(-c4cnnc(N)c4)cc4ncccc34)n2)C[C@H](C#N)C1", "IC50 (nM)": 96}
{"structure as smiles": "CO[C@H]1C[C@](CC#N)(n2ccc(-c3nc(-c4cn[nH]c4)cc4ncccc34)n2)C1", "IC50 (nM)": 101}
{"structure as smiles": "N#CCC1(n2ccc(-c3nc(-c4cn[nH]c4)cc4ncccc34)n2)CN(CC(F)(F)F)C1", "IC50 (nM)": 13}
{"structure as smiles": "CS(=O)(=O)N1CC(CC#N)(n2ccc(-c3nc(-c4cnn5ccccc45)cc4ncccc34)n2)C1", "IC50 (nM)": 35}

(I) N#CCC1(n2ccc(-c3nc(-c4ccn[nH]4)cc4ncccc34)n2)CN(S(=O)(=O)C2COC2)C1
(II) Cc1cc(-c2cc3ncccc3c(-c3ccn(C4(CC#N)CN(CC(F)(F)F)C4)n3)n2)ccn1
(III) N#CC[C@]1(n2cc(-c3nc(-c4cnn(CCO)c4)cc4ncccc34)cn2)C[C@@H](C#N)C1
Exercise: Reorder: IC50, max to min. List the labels in the requested order.
Key: II, I, III
(II: 71 nM, I: 26 nM, III: 15 nM)
